test system: Enterococcus sp.; experiment: In vitro antibacterial evaluation: minimum inhibitory concentration (MIC), broth dilution method; format: cell-based; conditions: broth dilution, inoculum 5×10^5 CFU/mL, 18 hours at 35° C.
Source text: […]
Reported MIC Enterococcus faecalis (GC 4552) values follow for various molecules

Use these answered entries as a reference point.
1. CC(C)=CCN1CC(C(O)C2NC(=O)C(C(O)C3CNC(=N)N3)NC(=O)C(Cc3ccc(OC4OC(CO)C(OC5OC6COC7(OC6C(O)C5O)C5CC6CC(C5)CC7C6)C(O)C4O)cc3)NC(=O)C(C(C)c3ccccc3)NC(=O)CNC(=O)C(CO)NC2=O)N(C2OC(CO)C(O)C(O)C2O)C1=N (centres unmarked) = 8 µg/mL
2. COc1cc(C2OCC3OC(OC4C(CO)OC(Oc5ccc(CC6NC(=O)C(C(C)c7ccccc7)NC(=O)CNC(=O)C(CO)NC(=O)C(C(O)C7CNC(=N)N7C7OC(CO)C(O)C(O)C7O)NC(=O)C(C(O)C7CNC(=N)N7)NC6=O)cc5)C(O)C4O)C(O)C(O)C3O2)cc([N+](=O)[O-])c1O (centres unmarked) = >64 µg/mL
3. CC(c1ccccc1)C1NC(=O)CNC(=O)C(CO)NC(=O)C(C(O)C2CNC(=N)N2C2OC(CO)C(O)C(O)C2O)NC(=O)C(C(O)C2CNC(=N)N2)NC(=O)C(Cc2ccc(OC3OC(CO)C(OC4OC5COC6(CC7CCC6(C)C7(C)C)OC5C(O)C4O)C(O)C3O)cc2)NC1=O (centres unmarked) [Example 214] = 2 µg/mL
4. CC(c1ccccc1)C1NC(=O)CNC(=O)C(CO)NC(=O)C(C(O)C2CNC(=N)N2C2OC(CO)C(O)C(O)C2O)NC(=O)C(C(O)C2CNC(=N)N2)NC(=O)C(Cc2ccc(OC3OC(CO)C(OC4OC5COC6(CC7CCC6(C)C7(C)C)OC5C(O)C4O)C(O)C3O)cc2)NC1=O (centres unmarked) [Example 215] = 1 µg/mL

Consider the molecule CC(C)=CCCC(C)=CCOc1ccc(C2OCC3OC(OC4C(CO)OC(Oc5ccc(CC6NC(=O)C(C(C)c7ccccc7)NC(=O)CNC(=O)C(CO)NC(=O)C(C(O)C7CNC(=N)N7C7OC(CO)C(O)C(O)C7O)NC(=O)C(C(O)C7CNC(=N)N7)NC6=O)cc5)C(O)C4O)C(O)C(O)C3O2)cc1 (centres unmarked) and give its measured MIC Enterococcus faecalis (GC 4552).
8 µg/mL

* * *

test system: Streptococcus sp.; assay: In vitro antibacterial evaluation: minimum inhibitory concentration (MIC), broth dilution method; assay type: cell-based; conditions: strain ATCC 6301
Recorded MIC Streptococcus pneumoniae (ATCC 6301) values for a group of molecules are listed next.

Some solved cases for reference:
1) CC(c1ccccc1)C1NC(=O)CNC(=O)C(CO)NC(=O)C(C(O)C2CNC(=N)N2C2OC(CO)C(O)C(O)C2O)NC(=O)C(C(O)C2CNC(=N)N2)NC(=O)C(Cc2ccc(OC3OC(CO)C(OC4OC5COC(c6ccc(-c7cccs7)cc6)OC5C(O)C4O)C(O)C3O)cc2)NC1=O (stereo not shown) = <0.5 µg/mL
2) CC(c1ccccc1)C1NC(=O)CNC(=O)C(CO)NC(=O)C(C(O)C2CN(c3nc4ccccc4s3)C(=N)N2C2OC(CO)C(O)C(O)C2O)NC(=O)C(C(O)C2CNC(=Nc3nc4ccccc4s3)N2)NC(=O)C(Cc2ccc(OC3OC(CO)C(OC4OC(CO)C(O)C(O)C4O)C(O)C3O)cc2)NC1=O (stereo not shown) = >64 µg/mL

Need MIC Streptococcus pneumoniae (ATCC 6301) of CC(c1ccccc1)C1NC(=O)CNC(=O)C(CO)NC(=O)C(C(O)C2CNC(=N)N2C2OC(CO)C(O)C(O)C2O)NC(=O)C(C(O)C2CNC(=N)N2)NC(=O)C(Cc2ccc(OC3OC(CO)C(OC4OC5COC(c6ccc7c(c6)OCCO7)OC5C(O)C4O)C(O)C3O)cc2)NC1=O (stereo not shown) , thanks.
<0.5 µg/mL

What do we get for CC(c1ccccc1)C1NC(=O)CNC(=O)C(CO)NC(=O)C(C(O)C2CNC(=N)N2C2OC(CO)C(O)C(O)C2O)NC(=O)C(C(O)C2CNC(=N)N2)NC(=O)C(Cc2ccc(OC3OC(CO)C(OC4OC5COC(c6ccc(-c7ccc(Cl)cc7)cc6)OC5C(O)C4O)C(O)C3O)cc2)NC1=O (stereo not shown) ?
<0.06 µg/mL

Numbers sourced from patent US8247211B2.
